Values from PubChem BioAssay (NCI)

Test system: MDA-MB-231 breast
METHOD_SUMMARY: NCI tumour cell line growth inhibition, 48 h
# TGI listing for each entry below
VALUE_KIND: TGI

[[record]]
molecule = "CCOC(=O)C(NS(=O)(=O)c1ccccc1)(C(F)(F)F)P(=O)(OCC(C)C)OCC(C)C (stereo not given)"
measured_result = "> 100 µM"

[[record]]
molecule = "Cc1cc(C(=O)NOCCO)c(Nc2ccc(I)cc2F)n(C)c1=O"
measured_result = "> 100 µM"

[[record]]
molecule = "OC[C@@H](O)[C@H](O)[C@H](O)[C@@H](O)C1SCCCS1"
measured_result = "> 100 µM"

[[record]]
molecule = "CC#CC#C/C=C1/C=CC2(CCCCO2)O1 (stereo not given)"
measured_result = "> 100 µM"

[[record]]
molecule = "COc1ccc(CC2OC3(CCCCC3)CC3CCCCN32)cc1 (stereo not given)"
measured_result = "> 100 µM"

[[record]]
molecule = "CCCCCCCCC/C=C1/CC(CO)(COC(=O)C2CCCCC2)OC1=O (stereo not given)"
measured_result = "> 100 µM"

[[record]]
molecule = "Nc1[nH]c(=S)[nH]c(=O)c1N=Nc1c(Br)cc(S(N)(=O)=O)cc1Br"
measured_result = "> 100 µM"

[[record]]
molecule = "CC(=O)OC1CC[C@@]2(C)C(=CC[C@@H]3[C@@H]2CC[C@]2(C)Nc4c(cnn4-c4ccc(F)cc4)C[C@@H]32)C1 (stereo not given in full)"
measured_result = "> 100 µM"

[[record]]
molecule = "C#Cc1cccc(NC(=O)C2CCCCN2C(=O)CCl)c1 (stereo not given)"
measured_result = "28.7 µM"

[[record]]
molecule = "O=C1/C(=C/Cc2ccco2)N=C(c2ccccc2)N1c1nc2ccc(Sc3ccccc3)cc2[nH]1"
measured_result = "57 µM"


====

System: PC-3 prostate
METHOD_SUMMARY: NCI tumour cell line growth inhibition, 48 h
Listing: TGI of selected molecules
VALUE_KIND: TGI

[[record]]
molecule = "COc1ccccc1-c1nc[nH]c1-c1ccccc1OC"
measured_result = "> 100 µM"

[[record]]
molecule = "COc1cc2ccnc3c2c(c1OC)N(C)C=C3"
measured_result = "> 100 µM"

[[record]]
molecule = "Cc1ccc(O)c(C(=O)/C=C/c2ccccc2)c1"
measured_result = "> 100 µM"

[[record]]
molecule = "COc1ccc2nc3c(nc2c1)C(C)(C)C=C3c1ccc(Br)cc1"
measured_result = "> 100 µM"

[[record]]
molecule = "CN1c2cccc[c]2[Sn]([CH3])([CH3])[c]2ccccc21"
measured_result = "0.154 µM"

[[record]]
molecule = "Cn1c(SCc2ccc([N+](=O)[O-])cc2)nnc1C12CC3CC(CC(C3)C1)C2"
measured_result = "> 10 µM"

[[record]]
molecule = "N#Cc1ccccc1C#C/C=C\\C#Cc1ccccn1"
measured_result = "40.6 µM"

[[record]]
molecule = "Fc1ccc(Nc2ccnc(N3CCN(c4ccnc5cc(Cl)ccc45)CC3)n2)cc1"
measured_result = "8.33 µM"

[[record]]
molecule = "OC[C@H](O)[C@@H](OCc1ccccc1)[C@H](NCc1ccccc1)c1cccs1"
measured_result = "> 100 µM"

[[record]]
molecule = "O=C1/C(=C/Cc2ccco2)N=C(c2ccccc2)N1c1nc2ccc(Sc3ccccc3)cc2[nH]1"
measured_result = "53.6 µM"

[[record]]
molecule = "Oc1ccc(Cl)cc1N=Nc1c(O)ccc2ccccc12"
measured_result = "> 100 µM"

[[record]]
molecule = "COc1cc([C@@H]2c3cc4c(cc3[C@H](OC3OC5COC(C(C)C)OC5C(O)C3O)C3COC(=O)[C@@H]32)OCO4)cc(OC)c1OC (some centres not stated)"
measured_result = "22.4 µM"

[[record]]
molecule = "c1ccc2cc(Cn3c(-c4cccc5ccccc45)[n+](Cc4ccc5ccccc5c4)c4c5ccccc5c5ccccc5c43)ccc2c1"
measured_result = "1.53 µM"

[[record]]
molecule = "COC(=O)c1cc(NC(=O)Cn2c3ccccc3c3ccccc32)cn1C"
measured_result = "> 100 µM"

[[record]]
molecule = "Cc1cc2nc3c(C)c4ccccc4c(C)n3c2cc1C"
measured_result = "> 10 µM"

[[record]]
molecule = "CCCC(CCC(=O)O)(CCC(=O)O)[N+](=O)[O-]"
measured_result = "> 100 µM"

[[record]]
molecule = "O=C(O)Cn1cnc2c(=O)[nH]c(Nc3ccccc3)nc21"
measured_result = "> 100 µM"

[[record]]
molecule = "Cc1cc(C2CC(O)C(CO)O2)c(Br)cc1Br (configuration not stated)"
measured_result = "> 100 µM"

[[record]]
molecule = "CC#CC#C/C=C1/C=CC2(CCCCO2)O1 (configuration not stated)"
measured_result = "> 100 µM"

[[record]]
molecule = "O=S1(=O)OCCOS(=O)(=O)C1C1c2ccccc2-c2ccccc21"
measured_result = "> 100 µM"

[[record]]
molecule = "O=C(NNC(=O)c1ccccc1O)c1cccs1"
measured_result = "> 100 µM"

[[record]]
molecule = "COc1ccc2cc(CNCCOCCOCCNCc3ccc4cc(OC)ccc4c3)ccc2c1"
measured_result = "3.16 µM"

